# System: M.tb
# assay.protocol: Efficacy in a mouse model of TB (lung CFU reduction)
# Type: in vivo
# assay.context: Mycobacterium tuberculosis, inhaled or nasal, 288 h; read-out: Log reduction in colony-forming units (CFU), new compound
Each entry below lists one item and its recorded log reduction at 20 mg/kg value.
observation.type: log reduction at 20 mg/kg

INSERT INTO measurements (compound, meas_value) VALUES
  ('CCOc1cc(C(O)(CCN(C)C)C(c2cc(OC)nc(OC)c2)c2cc3cc(Br)ccc3nc2OC)cc(OC(C)C)n1 (stereo not shown)', 4.5),
  ('COc1nc2ccc(Br)cc2cc1C(c1cccc2c1OCO2)C(O)(CCN(C)C)c1cccnc1OC (stereo not shown)', 0.3),
  ('COc1cc(C(O)(CCN(C)C)C(c2cc3cc(Br)ccc3nc2OC)c2ccnc(OC)c2OC)cnc1OC (stereo not shown)', 0.9),
  ('COc1cccc(C(c2cc3cc(Br)ccc3nc2OC)C(O)(CCN(C)C)c2cnc(C)cc2C)c1OC (stereo not shown)', 0.7);

====

Each entry below lists one item and its recorded microsomal CLint value.
# assay.protocol: in vitro
# assay.context: mouse, microsomes
observation.type: microsomal CLint (µL/min/mg)

INSERT INTO measurements (molecule, observation_type, unit_tag, meas_value) VALUES
  ('CCc1cc(C(O)(CCN(C)C)C(c2cc3cc(Br)ccc3nc2OC)c2cccc(OC)c2F)cc(CC)n1 (stereo not drawn)', 'microsomal CLint', 'µL/min/mg', 20),
  ('COc1cccc(C(c2cc3cc(Br)ccc3nc2OC)C(O)(CCN(C)C)c2ccc(C)nc2)c1F (stereo not drawn)', 'microsomal CLint', 'µL/min/mg', 99),
  ('COc1cccc(C(c2cc3cc(Br)ccc3nc2OC)C(O)(CCN(C)C)c2cnc(C)cc2C)c1OC (stereo not drawn)', 'microsomal CLint', 'µL/min/mg', 46);

====

Each entry below lists one item and its recorded microsomal CLint value.
# assay.protocol: in vitro
# assay.context: human, microsomes
observation.type: microsomal CLint (µL/min/mg)

INSERT INTO assay_data (molecule, observation_type, unit_tag, meas_value) VALUES
  ('CCc1cc(C(O)(CCN(C)C)C(c2cc3cc(C#N)ccc3nc2OC)c2cccc(OC)c2F)cc(CC)n1 (stereo not shown) [Compound 59]', 'microsomal CLint', 'µL/min/mg', 10),
  ('COc1cccc(C(c2cc3cc(C#N)ccc3nc2OC)C(O)(CCN(C)C)c2cc(C)nc(C)c2)c1OC (stereo not shown) [Compound 57]', 'microsomal CLint', 'µL/min/mg', 7),
  ('COc1nc2ccc(C#N)cc2cc1C(c1cccc(F)c1)C(O)(CCN(C)C)c1cncc(C)c1 (stereo not shown) [Compound 27]', 'microsomal CLint', 'µL/min/mg', 122),
  ('COc1nc2ccc(Br)cc2cc1C(c1cccc(C)c1)C(O)(CCN(C)C)c1cccnc1OC (stereo not shown) [Compound 39]', 'microsomal CLint', 'µL/min/mg', 10),
  ('COc1cc(C(O)(CCN(C)C)C(c2cc3cc(Br)ccc3nc2OC)c2ccnc(OC)c2OC)cnc1OC (stereo not shown) [Compound 48]', 'microsomal CLint', 'µL/min/mg', 5),
  ('CCOc1cc(C(O)(CCN(C)C)C(c2cc(OC)nc(OC)c2)c2cc3cc(Br)ccc3nc2OC)cc(OC(C)C)n1 (stereo not shown) [Compound 62]', 'microsomal CLint', 'µL/min/mg', 1),
  ('COc1cccc(C(c2cc3cc(C#N)ccc3nc2OC)C(O)(CCN(C)C)c2cc(C)nc(C)c2)c1F (stereo not shown) [Compound 55]', 'microsomal CLint', 'µL/min/mg', 12);

====

# assay.context: mouse, in vivo, iv
Each entry below lists one item and its recorded IV Cl: IV clearance value.
observation.type: IV Cl: IV clearance (mL/min/kg)

INSERT INTO results (molecule, observation_type, meas_value) VALUES
  ('COc1nc2ccc(C#N)cc2cc1C(c1cccc(C)c1)C(O)(CCN(C)C)c1cccnc1OC (stereo not shown)', 'IV Cl: IV clearance', 48),
  ('COc1cccc(C(c2cc3cc(C#N)ccc3nc2OC)C(O)(CCN(C)C)c2cc(C)nc(C)c2)c1F (stereo not shown)', 'IV Cl: IV clearance', 130),
  ('COc1cccc(C(O)(CCN(C)C)C(c2cc3cc(Br)ccc3nc2OC)c2cccc3c2OCO3)n1 (stereo not shown)', 'IV Cl: IV clearance', 13),
  ('COc1cccc(C(c2cc3cc(Br)ccc3nc2OC)C(O)(CCN(C)C)c2cnc(C)cc2C)c1OC (stereo not shown)', 'IV Cl: IV clearance', 28);
